Test system: NOMO1
Assay notes: cell viability relative to DMSO control; higher = less cytotoxic
Stated conditions: HPLM + 10% dialyzed FBS; 48 h; 0.00234 µM
The following compounds are shown together with reported cell viability values.
Give the value, in units of %, as a plain number.

>>> measured_value("CC[C@H]1/C=C\\C=C/C[C@@H](C)[C@H](O)[C@@](C)(O)C(=O)[C@@H](C)[C@H](O)[C@@H](C)C(=O)[C@@H](C)[C@H](O)[C@@H](C)/C=C/C(=O)O[C@@H]2[C@H](C)[C@H](CC1)O[C@]1(CC[C@H](C)[C@H](C[C@@H](C)O)O1)[C@H]2C")
89.4
>>> measured_value("C[S+](=O)([O-])N(Cc1ccco1)CC(O)Cn1c2ccccc2c2ccccc21 (centres undefined)")
99
>>> measured_value("CN1\\C(=C(\\O)C2=C(C=CS2)[S+]1([O-])=O)C(=O)NC3=CC=CC=N3")
122

Consider now this further compound.
Task: Value lookup for cell viability; key = C=CC1=C(C(=O)O)N2C(=O)[C@@H](NC(=O)/C(=N\O)c3csc(N)n3)[C@H]2SC1
Output: 110

###

Tested on: SEM cells
Assay notes: cell viability relative to DMSO control; higher = less cytotoxic
Stated conditions: HPLM + 10% dialyzed FBS; 48 h; 1.71 µM
cell viability values, listed per item
A bare number is not enough; add the unit after it.

Previously resolved entries follow.
>>> measured_value("Cn1c(Nc2ccc(C(F)(F)F)cc2)nc2cc(Oc3ccnc(-c4nc(C(F)(F)F)c[nH]4)c3)ccc21")
"96.2%"
>>> measured_value("Cc1nccn1CC1CCc2c(c3ccccc3n2C)C1=O (configuration not stated)")
"117%"
>>> measured_value("CN(C/C=C/C#CC(C)(C)C)Cc1cccc2ccccc12")
"94%"
>>> measured_value("OC(=O)\\C1=C\\N(C2=CC=C(F)C=C2)C3=C(C=C(F)C(=C3)N4CCNCC4)C1=O")
"89.4%"
>>> measured_value("CC(=O)O[C@@]1(CC[C@H]2[C@@H]3\\C=C(C)/C4=C/C(=O)CC[C@]4(C)[C@H]3CC[C@]12C)C(C)=O")
"99.2%"

Task: Quick one: cell viability of OCc1ccc(-c2nn(Cc3ccccc3)c3ccccc23)o1 ?
Output: 38.1%

Task: Quick one: cell viability of Oc1ccc(/C=C/c2cc(O)cc(O)c2)cc1 ?
Output: 121%

###

// reported cell viability for each item listed
Test system: NOMO1
Assay notes: cell viability relative to DMSO control; higher = less cytotoxic
Stated conditions: RPMI 5 mM glucose + 10% dialyzed FBS; 48 h; 0.000781 µM
Please respond with the number in % and leave the unit unwritten.

Task: Need cell viability of CC(C)(C)c1cc(C=C(C#N)C#N)cc(Br)c1O , thanks.
Output: 84.5

Task: What cell viability value was documented for this molecule, Cc1cccc(C)c1OCC(=O)N[C@@H](Cc1ccccc1)[C@@H](O)C[C@H](Cc1ccccc1)NC(=O)[C@H](C(C)C)N1CCCNC1=O ?
Output: 96.9

Task: Quick one: cell viability for CCN(CC)C(=S)SSC(=S)N(CC)CC ?
Output: 114

Task: Any idea what cell viability was measured for CCc1c(C(=O)C(N)=O)c2c(OCC(=O)O)cccc2n1Cc1ccccc1 ?
Output: 95.3

Task: Need cell viability, item O=C(/C=C/c1c(C(=O)[O-])[nH]c2cc(Cl)cc(Cl)c12)Nc1ccccc1
Output: 110
